biological target: β5c subunit of isolated human 20S proteasome (Homo sapiens, UniProt P28074); construct: purchased Enzo Life Sciences; assay: Proteasome inhibition assay (20 S Proteasome Assay Kit, Suc‐LLVY‐AMC); assay type: biochemical; conditions: c=100 nM; read-out: Rel. Inhibition β5c
VALUE TYPE: inhibition at 0.1 µM (%)

COMPOUND	UNIT ANNOTATION	inhibition at 0.1 µM
CC(C)C[C@@H](C=O)NC(=O)[C@H](CC(C)C)NC(=O)[C@H](CC(C)C)NC(=O)Cn1cnc2ccccc2c1=O [Compound 22]	%	6
Cc1ccc(NC(=O)C(=O)[C@H](CC(C)C)NC(=O)[C@H](CC(C)C)NC(=O)[C@H](CC(C)C)NC(=O)c2cc(Cl)ccc2Cl)c(C)c1 [Compound 26]	%	25
Cc1ccc(Oc2ccccc2)cc1NC(=O)C(=O)[C@H](CC(C)C)NC(=O)[C@H](CC(C)C)NC(=O)[C@H](CC(C)C)NC(=O)OCc1ccccc1 [Compound 15]	%	26

P: CC(C)C[C@H](NC(=O)OCc1ccccc1)C(=O)N[C@@H](CC(=O)OC(C)(C)C)C(=O)N[C@@H](CC(C)C)C(=O)C(=O)Nc1cccc(Oc2ccccc2)c1 [Compound 19]
Q: CC(C)C[C@@H](C=O)NC(=O)[C@H](CC(C)C)NC(=O)[C@H](CC(C)C)NC(=O)c1cnccn1 [Compound 23]
Task item: # compare inhibition at 0.1 µM for P vs Q ; return the one with the smaller value Please indicate the selected item by its label.
Reply: Q
(Q: 30%, P: 53%)

1: CC(C)C[C@H](NC(=O)OCc1ccccc1)C(=O)N[C@@H](CC(C)C)C(=O)N[C@@H](CC(C)C)C(=O)C(=O)Nc1ccccc1Oc1ccccc1 [Compound 8]
2: CC(C)C[C@H](NC(=O)OCc1ccccc1)C(=O)N[C@@H](CC(C)C)C(=O)N[C@@H](CC(C)C)C(=O)C(=O)Nc1ccc(Oc2ccccc2)cc1 [Compound 10]
Task item: # compare inhibition at 0.1 µM for 1 vs 2 ; return the one with the smaller value Please indicate the selected item by its label.
Reply: 1
(1: 12%, 2: 25%)

###

molecular target: β5i subunit of isolated human 20S proteasome (Homo sapiens); construct: purchased Enzo Life Sciences; experiment: Proteasome inhibition assay (20 S Proteasome Assay Kit, Suc‐LLVY‐AMC); type: biochemical; settings: c=100 nM; read-out: Rel. Inhibition β5i
VALUE TYPE: inhibition at 0.1 µM (%)

A: Cc1ccc(NC(=O)C(=O)[C@H](CC(C)C)NC(=O)[C@H](CC(C)C)NC(=O)[C@H](CC(C)C)NC(=O)OCc2ccccc2)c(C)c1Oc1ccccc1 [Compound 12]
B: CC(C)C[C@H](NC(=O)OCc1ccccc1)C(=O)N[C@@H](CC(=O)OC(C)(C)C)C(=O)N[C@@H](CC(C)C)C(=O)C(=O)Nc1ccccc1Oc1ccccc1 [Compound 18]
Task item: # compare inhibition at 0.1 µM for A vs B ; return the one with the smaller value Please indicate the selected item by its label.
Reply: A

###

molecular target: β1c subunit of isolated human 20S proteasome (Homo sapiens); construct: purchased Enzo Life Sciences; assay: Proteasome inhibition assay (20 S Proteasome Assay Kit, Z‐LLE‐AMC); format: biochemical; details: c = 1 µM, n=1; read-out: Inhibition cCP β1
VALUE TYPE: inhibition at 1 µM (%)

Consider the worked cases shown below.
> print(dat)
                                   compound  value.reported
1  CC(C)C[C@@H](C=O)NC(=O)[C@H](CC(C)C)NC(=O)[C@H](CC(C)C)NC(=O)c1cc(Cl)ccc1Cl [Compound 24]              13
2  CC(C)C[C@H](NC(=O)OCc1ccccc1)C(=O)N[C@@H](CC(=O)OC(C)(C)C)C(=O)N[C@@H](CC(C)C)C(=O)C(=O)Nc1ccccc1 [Compound 16]              12

P: CC(C)C[C@@H](C=O)NC(=O)[C@H](CC(=O)OC(C)(C)C)NC(=O)[C@H](CC(C)C)NC(=O)c1cc(Cl)ccc1Cl [Compound 25]
Q: CC(C)C[C@H](NC(=O)OCc1ccccc1)C(=O)N[C@@H](CC(C)C)C(=O)N[C@@H](CC(C)C)C(=O)C(=O)Nc1ccc(Oc2ccccc2)cc1 [Compound 10]
Task item: Just curious, which one has the larger inhibition at 1 µM reading, P or Q ? Please indicate the selected item by its label.
Reply: P
